For each record, write down the corresponding MIC.
# Test system: Enterococcus faecium (VanA VRE, ATCC BAA-2317)
# test-summary: Antimicrobial assay, MIC, VanA E. faecium
# Format: cell-based
# test-context: Enterococcus faecium, read-out: MIC, Van A E. faecium, serum concentration 25%
Answers are plain numbers, in mg/L.

compound	readout-type	measurement-units	recorded-result
CN[C@H](CC(C)C)C(=O)N[C@H]1C(=O)N[C@@H](CC(N)=O)C(=O)N[C@H]2C(=S)NC3C(=O)N[C@H](C(=O)N[C@H](C(=O)O)c4cc(O)cc(O)c4-c4cc3ccc4O)[C@H](O)c3ccc(c(Cl)c3)Oc3cc2cc(c3OC2OC(CO)C(O)[C@H](O)[C@@H]2O[C@H]2CC(C)(NCc3ccc(-c4ccc(Cl)cc4)cc3)[C@H](O)[C@H](C)O2)Oc2ccc(cc2Cl)[C@H]1O (stereo partly drawn) [Compound 5]	MIC	mg/L	4
CN[C@H](CC(C)C)C(=O)N[C@H]1C(=O)N[C@@H](CC(N)=O)C(=O)N[C@H]2C(=N)NC3C(=O)N[C@H](C(=O)N[C@H](C(=O)O)c4cc(O)cc(O)c4-c4cc3ccc4O)[C@H](O)c3ccc(c(Cl)c3)Oc3cc2cc(c3OC2OC(CO)C(O)[C@H](O)[C@@H]2O[C@H]2CC(C)(NCc3ccc(-c4ccc(Cl)cc4)cc3)[C@H](O)[C@H](C)O2)Oc2ccc(cc2Cl)[C@H]1O (stereo partly drawn) [Compound 6]	MIC	mg/L	0.06
CN[C@H](CC(C)C)C(=O)N[C@H]1C(=O)N[C@@H](CC(N)=O)C(=O)N[C@H]2C(=O)NC3C(=O)N[C@H](C(=O)N[C@H](C(=O)O)c4cc(O)cc(O)c4-c4cc3ccc4O)[C@H](O)c3ccc(c(Cl)c3)Oc3cc2cc(c3OC2OC(CO)C(O)[C@H](O)[C@@H]2O[C@H]2CC(C)(NCc3ccc(-c4ccc(Cl)cc4)cc3)[C@H](O)[C@H](C)O2)Oc2ccc(cc2Cl)[C@H]1O (stereo partly drawn) [Compound 4, N-4-(4′-chlorobiphenyl)methyl vancomycin, reference compound]	MIC	mg/L	5
CN[C@H](CC(C)C)C(=O)N[C@H]1C(=O)N[C@@H](CC(N)=O)C(=O)N[C@H]2CNC3C(=O)N[C@H](C(=O)N[C@H](C(=O)O)c4cc(O)cc(O)c4-c4cc3ccc4O)[C@H](O)c3ccc(c(Cl)c3)Oc3cc2cc(c3OC2OC(CO)C(O)[C@H](O)[C@@H]2O[C@H]2CC(C)(N)[C@H](O)[C@H](C)O2)Oc2ccc(cc2Cl)[C@H]1O (stereo partly drawn) [Compound 16, [Ψ[CH2NH]Tpg^4]vancomycin]	MIC	mg/L	62

Here is another compound to look at.
// MIC lookup, key: CN[C@H](CC(C)C)C(=O)N[C@H]1C(=O)N[C@@H](CC(N)=O)C(=O)N[C@H]2C(=N)NC3C(=O)N[C@H](C(=O)N[C@H](C(=O)O)c4cc(O)cc(O)c4-c4cc3ccc4O)[C@H](O)c3ccc(c(Cl)c3)Oc3cc2cc(c3OC2OC(CO)C(O)[C@H](O)[C@@H]2O[C@H]2CC(C)(N)[C@H](O)[C@H](C)O2)Oc2ccc(cc2Cl)[C@H]1O (stereo partly drawn) [Compound 3, [Ψ[C(═NH)NH]Tpg^4]vancomycin]
4

---

# Test system: vancomycin-resistant Enterococcus faecalis (VanB VRE, strain ATCC 51299)
# test-summary: microbe, parasite or virus in culture
# Assay type: cell-based
# test-context: Enterococcus faecalis, read-out: MIC, Van B E. faecalis, serum concentration 100%
For each record, write down the corresponding MIC.
Give bare numbers, in µg/mL.

compound	recorded-result
CN[C@H](CC(C)C)C(=O)N[C@H]1C(=O)N[C@@H](CC(N)=O)C(=O)N[C@H]2C(=S)NC3C(=O)N[C@H](C(=O)N[C@H](C(=O)O)c4cc(O)cc(O)c4-c4cc3ccc4O)[C@H](O)c3ccc(c(Cl)c3)Oc3cc2cc(c3OC2OC(CO)C(O)[C@H](O)[C@@H]2O[C@H]2CC(C)(NCc3ccc(-c4ccc(Cl)cc4)cc3)[C@H](O)[C@H](C)O2)Oc2ccc(cc2Cl)[C@H]1O (stereo partly shown)	8
CN[C@H](CC(C)C)C(=O)N[C@H]1C(=O)N[C@@H](CC(N)=O)C(=O)N[C@H]2C(=O)NC3C(=O)N[C@H](C(=O)N[C@H](C(=O)O)c4cc(O)cc(O)c4-c4cc3ccc4O)[C@H](O)c3ccc(c(Cl)c3)Oc3cc2cc(c3OC2OC(CO)C(O)[C@H](O)[C@@H]2O[C@H]2CC(C)(NCc3ccc(-c4ccc(Cl)cc4)cc3)[C@H](O)[C@H](C)O2)Oc2ccc(cc2Cl)[C@H]1O (stereo partly shown) [Compound 4, N-4-(4′-chlorobiphenyl)methyl vancomycin, reference compound]	0.06

// MIC lookup, key: CN[C@H](CC(C)C)C(=O)N[C@H]1C(=O)N[C@@H](CC(N)=O)C(=O)N[C@H]2C(=N)NC3C(=O)N[C@H](C(=O)N[C@H](C(=O)O)c4cc(O)cc(O)c4-c4cc3ccc4O)[C@H](O)c3ccc(c(Cl)c3)Oc3cc2cc(c3OC2OC(CO)C(O)[C@H](O)[C@@H]2O[C@H]2CC(C)(NCc3ccc(-c4ccc(Cl)cc4)cc3)[C@H](O)[C@H](C)O2)Oc2ccc(cc2Cl)[C@H]1O (stereo partly shown)
1
